Tested on: NCI-H3122
Assay: relative viability (nuclei count vs DMSO), 5 days (fraction); higher = more cells survive
Conditions: first compound 2 µM
QUANTITY_KIND: relative viability
Respond using a number only.

Please look at this compound and report its relative viability: CN1CCN(CCOc2cc(OC3CCOCC3)c3c(Nc4c(Cl)ccc5c4OCO5)ncnc3c2)CC1 [Saracatinib] + CC1(C)CCC(c2ccc(Cl)cc2)=C(CN2CCN(c3ccc(C(=O)NS(=O)(=O)c4ccc(N[C@H](CCN5CCOCC5)CSc5ccccc5)c(S(=O)(=O)C(F)(F)F)c4)cc3)CC2)C1 [Navitoclax] (partner 0.5 µM)
0.838

Given the compound Cc1csc(=NC2CCCCC2)n1/N=C/c1ccc(O)c(O)c1O [MIM1] + Cc1nc(NC(=O)N2CCC[C@H]2C(N)=O)sc1-c1ccnc(C(C)(C)C(F)(F)F)c1 [Alpelisib] (partner 2 µM) , write its reported relative viability.
0.881

Name the recorded relative viability of the compound listed here: Cc1csc(=NC2CCCCC2)n1/N=C/c1ccc(O)c(O)c1O [MIM1] + COc1cc2c(Oc3ccc(NC(=O)C4(C(=O)Nc5ccc(F)cc5)CC4)cc3F)ccnc2cc1OCCCN1CCOCC1 [Foretinib] (partner 0.25 µM)
1.03

Complete the entry with relative viability for CN1CCN(CCOc2cc(OC3CCOCC3)c3c(Nc4c(Cl)ccc5c4OCO5)ncnc3c2)CC1 [Saracatinib] + CCNC(=O)c1noc(-c2cc(C(C)C)c(O)cc2O)c1-c1ccc(CN2CCOCC2)cc1 [Luminespib] (partner 0.01 µM)
0.076

Input CN1CCN(CCOc2cc(OC3CCOCC3)c3c(Nc4c(Cl)ccc5c4OCO5)ncnc3c2)CC1 [Saracatinib] + Nc1ncn([C@H]2C[C@H](O)[C@@H](CO)O2)c(=O)n1 [Decitabine] (partner 2 µM) , output reported relative viability.
0.294

---

Give relative viability for every item shown.
System: NCI-H1666
Experiment: relative viability (nuclei count vs DMSO), 5 days (fraction); higher = more cells survive
Details: first compound 0.001 µM
Kindly provide the number alone.

Consider the molecule Cc1cn(-c2cc(NC(=O)c3ccc(C)c(Nc4nccc(-c5cccnc5)n4)c3)cc(C(F)(F)F)c2)cn1 [Nilotinib] + N=C(N)NC(=N)NCCc1ccccc1 [Phenformin] (partner 250 µM) . State its measured relative viability.
0.605

Find the measured relative viability of Cc1cn(-c2cc(NC(=O)c3ccc(C)c(Nc4nccc(-c5cccnc5)n4)c3)cc(C(F)(F)F)c2)cn1 [Nilotinib] + CC(=O)c1c(C)c2cnc(Nc3ccc(N4CCNCC4)cn3)nc2n(C2CCCC2)c1=O [Palbociclib] (partner 0.5 µM) and report it.
0.62

Quick one: give measured relative viability for Cc1cn(-c2cc(NC(=O)c3ccc(C)c(Nc4nccc(-c5cccnc5)n4)c3)cc(C(F)(F)F)c2)cn1 [Nilotinib] + CS(=O)(=O)N1CCN(Cc2cc3nc(-c4cccc5[nH]ncc45)nc(N4CCOCC4)c3s2)CC1 [Pictilisib] (partner 1 µM)
0.348

Tell me measured relative viability for Cc1cn(-c2cc(NC(=O)c3ccc(C)c(Nc4nccc(-c5cccnc5)n4)c3)cc(C(F)(F)F)c2)cn1 [Nilotinib] + NC(=O)Nc1cc(-c2cccc(F)c2)sc1C(=O)N[C@H]1CCCNC1 [AZD7762] (partner 0.2 µM) please.
0.78

Let me know recorded relative viability for Cc1cn(-c2cc(NC(=O)c3ccc(C)c(Nc4nccc(-c5cccnc5)n4)c3)cc(C(F)(F)F)c2)cn1 [Nilotinib] + COc1cccc2cc(-c3nc([C@H]4CC[C@H](C(=O)O)CC4)n4ncnc(N)c34)[nH]c12 [OSI-027] (partner 0.5 µM) , thanks.
0.823

---

Field: relative viability. Provide a value for each of the molecules that follow.
Tested on: NCI-H1915
Test: relative viability (nuclei count vs DMSO), 5 days (fraction); higher = more cells survive
Conditions: first compound 2.53 µM

Return the recorded relative viability value; entry: Nc1cccc2c1CN(C1CCC(=O)NC1=O)C2=O (stereo not drawn) [Lenalidomide] + Cc1cc(Nc2cc(N3CCN(C)CC3)nc(Sc3ccc(NC(=O)C4CC4)cc3)n2)n[nH]1 [Tozasertib] (partner 0.1 µM)
0.437

// fetch relative viability given entry Nc1cccc2c1CN(C1CCC(=O)NC1=O)C2=O (stereo not drawn) [Lenalidomide] + CC1(C)CCC(c2ccc(Cl)cc2)=C(CN2CCN(c3ccc(C(=O)NS(=O)(=O)c4ccc(N[C@H](CCN5CCOCC5)CSc5ccccc5)c(S(=O)(=O)C(F)(F)F)c4)cc3)CC2)C1 [Navitoclax] (partner 0.5 µM)
0.816

Return the recorded relative viability value; entry: Nc1cccc2c1CN(C1CCC(=O)NC1=O)C2=O (stereo not drawn) [Lenalidomide] + CC(=O)Nc1cccc(-n2c(=O)n(C3CC3)c(=O)c3c(Nc4ccc(I)cc4F)n(C)c(=O)c(C)c32)c1 [Trametinib] (partner 0.02 µM)
0.323

---

I'd be grateful if you could share measured relative viability for these entries.
Test system: NCI-H1666
Experiment: relative viability (nuclei count vs DMSO), 5 days (fraction); higher = more cells survive
Conditions: first compound 0.02 µM
Give the figure only, with no unit attached.

Find the measured relative viability of CCNC(=O)c1noc(-c2cc(C(C)C)c(O)cc2O)c1-c1ccc(CN2CCOCC2)cc1 [Luminespib] + Nc1ncn([C@H]2C[C@H](O)[C@@H](CO)O2)c(=O)n1 [Decitabine] (partner 2 µM) and report it.
0.715

Quick one: give measured relative viability for CCNC(=O)c1noc(-c2cc(C(C)C)c(O)cc2O)c1-c1ccc(CN2CCOCC2)cc1 [Luminespib] + COc1cccc2cc(-c3nc([C@H]4CC[C@H](C(=O)O)CC4)n4ncnc(N)c34)[nH]c12 [OSI-027] (partner 0.5 µM)
0.853

Give the value of relative viability reported for the following: CCNC(=O)c1noc(-c2cc(C(C)C)c(O)cc2O)c1-c1ccc(CN2CCOCC2)cc1 [Luminespib] + Cc1cc(Nc2cc(N3CCN(C)CC3)nc(Sc3ccc(NC(=O)C4CC4)cc3)n2)n[nH]1 [Tozasertib] (partner 0.1 µM)
0.601

Hello, please tell me recorded relative viability for this one: CCNC(=O)c1noc(-c2cc(C(C)C)c(O)cc2O)c1-c1ccc(CN2CCOCC2)cc1 [Luminespib] + CS(=O)(=O)CCNCc1ccc(-c2ccc3ncnc(Nc4ccc(OCc5cccc(F)c5)c(Cl)c4)c3c2)o1 [Lapatinib] (partner 2 µM)
0.585

---

Test system: NCI-H1792
Assay: relative viability (nuclei count vs DMSO), 5 days (fraction); higher = more cells survive
Settings: first compound 2.53 µM
QUANTITY_KIND: relative viability

Provide measured relative viability value, entry: Nc1cccc2c1CN(C1CCC(=O)NC1=O)C2=O (stereo not drawn) [Lenalidomide] + N=C(N)NC(=N)NCCc1ccccc1 [Phenformin] (partner 250 µM)
0.574

Input Nc1cccc2c1CN(C1CCC(=O)NC1=O)C2=O (stereo not drawn) [Lenalidomide] + CCNC(=O)c1noc(-c2cc(C(C)C)c(O)cc2O)c1-c1ccc(CN2CCOCC2)cc1 [Luminespib] (partner 0.01 µM) , output reported relative viability.
0.449

Please look at this compound and report its relative viability: Nc1cccc2c1CN(C1CCC(=O)NC1=O)C2=O (stereo not drawn) [Lenalidomide] + CS(=O)(=O)N1CCN(Cc2cc3nc(-c4cccc5[nH]ncc45)nc(N4CCOCC4)c3s2)CC1 [Pictilisib] (partner 1 µM)
0.264

---

Test system: ABC-1
Assay: relative viability (nuclei count vs DMSO), 5 days (fraction); higher = more cells survive
Conditions: first compound 0.6325 µM
QUANTITY_KIND: relative viability
The response must contain the number and no unit.

Consider the molecule Cc1csc(=NC2CCCCC2)n1/N=C/c1ccc(O)c(O)c1O [MIM1] + CCNC(=O)c1noc(-c2cc(C(C)C)c(O)cc2O)c1-c1ccc(CN2CCOCC2)cc1 [Luminespib] (partner 0.01 µM) . State its measured relative viability.
0.835

Give me measured relative viability, please, for this molecule: Cc1csc(=NC2CCCCC2)n1/N=C/c1ccc(O)c(O)c1O [MIM1] + CS(=O)(=O)CCNCc1ccc(-c2ccc3ncnc(Nc4ccc(OCc5cccc(F)c5)c(Cl)c4)c3c2)o1 [Lapatinib] (partner 2 µM)
1.24

Give recorded relative viability. CN1CCN(CCOc2cc(OC3CCOCC3)c3c(Nc4c(Cl)ccc5c4OCO5)ncnc3c2)CC1 [Saracatinib] + C[C@@H](Oc1cc(-c2cnn(C3CCNCC3)c2)cnc1N)c1c(Cl)ccc(F)c1Cl [Crizotinib] (partner 1 µM)
0.918

Using the record for Cc1csc(=NC2CCCCC2)n1/N=C/c1ccc(O)c(O)c1O [MIM1] + Cc1nc(NC(=O)N2CCC[C@H]2C(N)=O)sc1-c1ccnc(C(C)(C)C(F)(F)F)c1 [Alpelisib] (partner 2 µM) , state its measured relative viability.
1.05

Write down relative viability measured for item CN1CCN(CCOc2cc(OC3CCOCC3)c3c(Nc4c(Cl)ccc5c4OCO5)ncnc3c2)CC1 [Saracatinib] + O=C(CCCCCCC(=O)Nc1ccccc1)NO [Vorinostat] (partner 1 µM)
1.37

Kindly indicate its recorded relative viability. Item: Cc1csc(=NC2CCCCC2)n1/N=C/c1ccc(O)c(O)c1O [MIM1] + CS(=O)(=O)N1CCN(Cc2cc3nc(-c4cccc5[nH]ncc45)nc(N4CCOCC4)c3s2)CC1 [Pictilisib] (partner 1 µM)
0.852

Fill in reported relative viability for this entry: CN1CCN(CCOc2cc(OC3CCOCC3)c3c(Nc4c(Cl)ccc5c4OCO5)ncnc3c2)CC1 [Saracatinib] + O=C(c1cc(Cc2n[nH]c(=O)c3ccccc23)ccc1F)N1CCN(C(=O)C2CC2)CC1 [Olaparib] (partner 8 µM)
0.706

Name the recorded relative viability of the molecule listed here: CN1CCN(CCOc2cc(OC3CCOCC3)c3c(Nc4c(Cl)ccc5c4OCO5)ncnc3c2)CC1 [Saracatinib] + Nc1ncn([C@H]2C[C@H](O)[C@@H](CO)O2)c(=O)n1 [Decitabine] (partner 2 µM)
1.06

Please list relative viability recorded for the molecule Cc1csc(=NC2CCCCC2)n1/N=C/c1ccc(O)c(O)c1O [MIM1] + N=C(N)NC(=N)NCCc1ccccc1 [Phenformin] (partner 250 µM)
0.261
